Tested on: RXF 393 renal
assay_overview: NCI-60 one-dose screen, 48 h (100 = growth as untreated, 0 = no growth, -100 = all killed)
reported_conditions: 10 µM unless noted
Experimental: Cells are grown in 96 well plates and exposed to the test compound for 48 hours. Compounds are tested at a single concentration, which is 10^-5 M for most compounds. The reported endpoint is percent growth (GI% or GIPRCNT), where numbers from 0 - 100% represent growth inhibition, and numbers from -100% - 0 represent cell death. For example, a value of 40 represents 60% growth inhibition. A value of 0 means no net growth occurred over the course of the experiment. […]
About 83,000 compounds went through this panel and 20% of them were active in at least one assay; those are over-represented in the sample as a whole.
Lab note: anything with growth below 60% is marked satisfied; values at 60% or higher are marked not satisfied.

Known results for compounds:
{"compound": "O=C(Cn1cc(-c2ccccc2)nn1)Nc1nc(-c2ccc(Cl)cc2)cs1", "classification": "not satisfied"}
{"compound": "C[C@@H]1C[C@H]2C(=O)O[C@@H](C)C(NC(=O)[C@H](Cc3cc(F)cc(F)c3)NC(=O)Nc3ccc(Cl)cc3F)C(=O)N3CCC[C@H]3C(=O)N3CCCC[C@H]3C(=O)N[C@@H](CO)C(=O)N2C1 (stereo partly drawn)", "classification": "satisfied"}
{"compound": "CCCn1cnc2c(c1=N)C(c1ccc(OC)cc1)c1sc3c(CC)cccc3c1O2 (stereo not drawn)", "classification": "satisfied"}
{"compound": "CC[C@]12C=CCN3CC[C@@]4(c5cc(NC(=O)COc6cc(O)c7c(=O)cc(-c8ccccc8)oc7c6)c(OC)cc5N(C)[C@H]4[C@@](O)(C(=O)OC)[C@@H]1OC(C)=O)[C@@H]32", "classification": "satisfied"}

Enquiry: hey, is growth for `O=C(Nc1nonc1-c1ccccc1)c1ccc(C(F)(F)F)cc1` lower than 60% or not?
Return: not satisfied

Enquiry: Please check: growth for COc1ccc(CCOc2cc3c(cc2OC)CCN(C(=O)NCc2cocn2)C3c2ccc(C)cc2C)cc1 (stereo not drawn) , strictly under 60% or not?
Return: satisfied

Enquiry: Please state whether growth is below 60% for `Cc1nn(-c2ccccc2)c2ncnc(N/N=C/c3ccccc3)c12`
Return: not satisfied

Enquiry: Is 60% strictly greater than the compound's reported growth? compound: `O=C(Nc1nc2ccc([N+](=O)[O-])cc2s1)Nc1ccccc1Br`
Return: not satisfied
